- System: HOP-92 NSCLC
- measurement-protocol: NCI-60 one-dose screen, 48 h (100 = growth as untreated, 0 = no growth, -100 = all killed)
- measurement-setup: 10 µM unless noted
About 83,000 compounds went through this panel and 20% of them were active in at least one assay; those are over-represented in the sample as a whole.
measurement-kind: growth (%)
One number for each entry, in %.

Solved entries (count: 5):
molecule=COc1ccccc1-c1c(-c2ccc(Cl)cc2)c2cc3c(cc2[nH]c1=O)OCCO3 system_tested="HOP-92 NSCLC" quantitative_result=80.7
molecule=CC(C)(C)CC(C)(C)Nc1c(-c2ccc(C(F)(F)F)cc2)nc2cnccn12 system_tested="HOP-92 NSCLC" quantitative_result=82.6
molecule=CCCCCN1C=C/C(=C\C(=O)N(C)c2cccc3ccccc23)c2ccccc21 system_tested="HOP-92 NSCLC" quantitative_result=92.6
molecule="O=c1[nH]c2c(s1)CCCC2CN1CCCCC1 (configuration not stated)" system_tested="HOP-92 NSCLC" quantitative_result=104
molecule=CCCC/C(=N\N=C(N)N)c1ccc(F)cc1 system_tested="HOP-92 NSCLC" quantitative_result=31.4

Each of the following entries comes with a recorded value; kindly state growth for each.
1. COc1ccc(/C(=C\c2ccccc2)C(=O)O)cc1OC
2. Nc1nnc(C(=O)c2cnc3n(c2=O)CCCCC3)s1

97.9
98.4
